Biological target: Histone-arginine methyltransferase CARM1 (Homo sapiens, UniProt Q86X55)
Sequence (Q86X55 whole entry): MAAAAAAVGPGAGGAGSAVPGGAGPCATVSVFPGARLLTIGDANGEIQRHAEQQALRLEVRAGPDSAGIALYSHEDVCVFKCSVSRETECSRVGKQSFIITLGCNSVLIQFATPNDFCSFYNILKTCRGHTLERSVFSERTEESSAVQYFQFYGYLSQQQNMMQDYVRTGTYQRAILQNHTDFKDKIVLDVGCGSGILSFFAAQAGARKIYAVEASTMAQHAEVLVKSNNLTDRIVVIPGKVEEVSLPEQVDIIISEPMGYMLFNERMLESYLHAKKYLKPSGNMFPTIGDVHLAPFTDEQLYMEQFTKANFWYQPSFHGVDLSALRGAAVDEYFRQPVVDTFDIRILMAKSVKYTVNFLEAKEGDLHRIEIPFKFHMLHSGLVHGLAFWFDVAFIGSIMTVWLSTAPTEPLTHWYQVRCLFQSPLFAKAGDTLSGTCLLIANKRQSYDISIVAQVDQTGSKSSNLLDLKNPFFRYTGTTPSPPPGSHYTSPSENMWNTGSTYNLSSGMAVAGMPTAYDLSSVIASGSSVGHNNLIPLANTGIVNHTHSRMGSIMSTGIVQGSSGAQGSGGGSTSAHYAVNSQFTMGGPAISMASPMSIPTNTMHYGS
Assay: Inhibition of CARM1 (unknown origin) using 24 residues of biotin labelled histone4 substrate and tritiated 3H-S-adenosylmethionine by scintillation proximity assay
pIC50: −log10 of the molar value.
property: pIC50

{"columns": ["query-smiles", "system-name", "pIC50"],
 "data": [
  ["NCCN1CCC(Cc2ccccc2)CC1", "Histone-arginine methyltransferase CARM1 (Homo sapiens, UniProt Q86X55)", 6.00]
]}

(A) CNCCN(C)C
(B) CNCCN1CCC(C)CC1
(C) CCNC(=O)[C@@H](C)N
Endpoint returns the given compounds ordered by ascending pIC50. Reply: labels, ordered per the request.
C, A, B
